// reported ELISA signal relative to background per item
Target: T1, FX activation peptide 12-mer LLDFNQTQPERG (human)
T1 peptide: LLDFNQTQPERG-biotin
Assay: peptide ELISA
Ends that are not written are not given here.
Form field (numeric): enter value without unit.

[Q] // returns reported ELISA signal relative to background for input Nb 501A02 (VHH, monovalent control Nanobody; also called control Nanobody; not shown: C-terminal FLAG3 and HIS6 tag) VHH: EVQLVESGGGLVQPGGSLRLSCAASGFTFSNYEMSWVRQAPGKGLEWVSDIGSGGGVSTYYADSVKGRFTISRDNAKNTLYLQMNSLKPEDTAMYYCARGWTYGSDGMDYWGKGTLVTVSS
[A] 0.79

[Q] Consider next the binder Nb 729C08 (VHH, monovalent Nanobody; also called Nb 729008; not shown: C-terminal FLAG3 and HIS6 tag) VHH: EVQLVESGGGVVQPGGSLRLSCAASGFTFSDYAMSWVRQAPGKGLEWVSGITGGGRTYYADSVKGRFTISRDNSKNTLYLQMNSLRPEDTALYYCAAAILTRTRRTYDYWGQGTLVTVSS in the same way.
[A] 1.13

[Q] Consider next the binder Nb 701C06 (VHH, monovalent Nanobody; not shown: C-terminal FLAG3 and HIS6 tag) VHH: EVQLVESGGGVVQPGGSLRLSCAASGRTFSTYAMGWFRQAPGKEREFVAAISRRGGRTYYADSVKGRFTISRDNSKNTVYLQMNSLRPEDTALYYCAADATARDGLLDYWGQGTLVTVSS in the same way.
[A] 1.03
